Ref: ChEMBL document CHEMBL5260807

test details: Drug distribution in C57BL/6J mouse in circulatory system at 30 mg/kg,po and measured after 1 hrs by LC-MS/MS analysis
Type: ADME, organism-based
test context: read-out: Drug uptake
value type: concentration at 1 h (µM)

[A] O=C(O)c1ccc(Oc2cnc(NC(=O)[C@H](Oc3ccc(F)cc3F)c3ccc(S(=O)(=O)C4CC4)cc3)s2)cc1
[B] CC(C)(Oc1ccc(F)cc1F)C(=O)Nc1nc(CC(=O)O)c(Cl)s1
Query: Recorded concentration at 1 h values differ for A and B ; which one is higher? Please reply using the label of the selected record.
Response: B

---

test details: Cmax in C57BL/6J mouse at 30 mg/kg,po and measured after 2 hrs by LC-MS/MS analysis
Format: ADME, organism-based
Parameters: dose 30 mg/kg, time 2 hrs, route po
test context: in vivo
value type: Cmax (µM)

[a] CC(C)(Oc1ccc(F)cc1F)C(=O)Nc1nc(CC(=O)O)c(Cl)s1
[b] O=C(O)c1ccc(Oc2cnc(NC(=O)[C@H](Oc3ccc(F)cc3F)c3ccc(S(=O)(=O)C4CC4)cc3)s2)cc1
Query: Recorded Cmax values differ for a and b ; which one is higher? Please reply using the label of the selected record.
Response: a
(a: 326 µM, b: 13.3 µM)
